system: A431; assay: Inhibition of cancer cell growth as measured by cell number (Sulforhodamine B); type: cell-based; details: Homo sapiens, A-431; 48 hours exposure
Under this convention, fulfilled denotes IC50 strictly below 0.8 µg/mL and not fulfilled denotes IC50 at or above 0.8 µg/mL.

Molecule: C=CC(=O)Nc1ccc2sc3c(Nc4cccc(Br)c4)c(C#N)cnc3c2c1 [Example 93]
Tested On: A431
Answer Label: not fulfilled
--
Molecule: C=CC(=O)Nc1cccc2c1sc1c(Nc3cccc(Br)c3)c(C#N)cnc12 [Example 94]
Tested On: A431
Answer Label: not fulfilled
--
Molecule: COc1cc2cc3c(Nc4ccc(OCc5ccccc5)c(Cl)c4)c(C#N)cnc3cc2cc1OCCN1CCOCC1 [Example 218]
Tested On: A431
Answer Label: not fulfilled
--
Molecule: N#Cc1cnc2cc3cc(O)c(O)cc3cc2c1Nc1ccc(Cl)cc1Cl [Example 15]
Tested On: A431
Answer Label: fulfilled
--
Molecule: N#Cc1cnc2cc3ccccc3cc2c1Nc1ccc(F)c(Cl)c1 [Example 4]
Tested On: A431
Answer Label: fulfilled
--
Molecule: N#Cc1cnc2c(sc3ccccc32)c1Nc1cccc(Br)c1 [Example 65]
Tested On: A431
Answer Label: not fulfilled
--
Molecule: N#Cc1cnc2c(sc3ccc([N+](=O)[O-])cc32)c1Nc1ccc(Cl)cc1Cl [Example 90]
Tested On: A431
Answer Label: fulfilled
--
Molecule: N#Cc1cnc2c(c1Nc1cccc(Br)c1)C=C1N=CN=C1C2 [Example 37]
Tested On: A431
Answer Label: fulfilled
--
Molecule: N#Cc1cnc2c(sc3ccc(N)cc32)c1Nc1cccc(Br)c1 [Example 92]
Tested On: A431
Answer Label: not fulfilled
--
Molecule: COc1cc2cc3ncc(C#N)c(Nc4ccc(F)c(Cl)c4)c3cc2cc1OCCN1CCOCC1 [Example 212]
Tested On: A431
Answer Label: fulfilled
--
Molecule: N#Cc1cnc2c(oc3ccccc32)c1Nc1cccc(Br)c1 [Example 85]
Tested On: A431
Answer Label: not fulfilled

###

tested on: Human adenocarcinoma cell line LoVo; test: Cell based screen for inhibitors of Raf kinase, quantitative assay; settings: 96 h, four days incubation
Recorded Metric: IC50

Compound: COc1cc2cc3c(Nc4ccc(Sc5nccn5C)c(Cl)c4)c(C#N)cnc3cc2cc1OCCn1ccnn1 [Example 154]
Recorded Metric: IC50
Result Value: 0.043 µM

Compound: COc1cc2cc3c(Nc4ccc(Sc5nccn5C)c(Cl)c4)c(C#N)cnc3cc2cc1OCCN1CCOCC1 [Example 149]
Recorded Metric: IC50
Result Value: 0.006 µM

Compound: COc1cc2cc3c(Nc4ccc(Sc5nccn5C)c(Cl)c4)c(C#N)cnc3cc2cc1OCCCN1CCOCC1 [Example 151]
Recorded Metric: IC50
Result Value: 0.0085 µM

Compound: N#Cc1cnc2c(c1Nc1ccc(Oc3ccccc3)cc1)C=C1N=CN=C1C2 [Example 44]
Recorded Metric: IC50
Result Value: 0.85 µM

Compound: COc1cc2cc3c(Nc4ccc(OCc5ccccc5)c(Cl)c4)c(C#N)cnc3cc2cc1OCCN1CCOCC1 [Example 218]
Recorded Metric: IC50
Result Value: 0.43 µM

###

tested on: Rat2 fibroblasts stably transformed with v-Src/Hu c-Src fusion gene; assay: Anchorage independent Src-transformed fibroblast proliferation test procedure; type: cell-based; settings: Rattus norvegicus, @ dose 10 µM, read-out: Src TF prolif %Inh
# maps each entry to its inhibition at 10 µM

Compound Structure String: COc1ccc(Cl)c(Nc2c(C#N)cnc3c2C=C2N=CN=C2C3)c1
Unit Abbrev: %
inhibition at 10 µM: 0
--
Compound Structure String: COc1cc(Nc2c(C#N)cnc3cc4c(cc23)ncn4CCN2CCOCC2)c(C)cc1Cl
Unit Abbrev: %
inhibition at 10 µM: 0
--
Compound Structure String: COc1cc(Nc2c(C#N)cnc3c2C=C2N=CN=C2C3)c(Br)cc1Cl
Unit Abbrev: %
inhibition at 10 µM: 25
--
Compound Structure String: N#Cc1cnc2c(c1Nc1ccc(Cl)cc1Br)C=C1N=CN=C1C2
Unit Abbrev: %
inhibition at 10 µM: 0

###

tested on: LnCAP; assay: Cell based screen for inhibitors of Raf kinase, quantitative assay; conditions: Homo sapiens

Compound Structure String: COc1cc2cc3c(Nc4ccc(Sc5nccn5C)c(Cl)c4)c(C#N)cnc3cc2cc1OCCN1CCOCC1
Unit Abbrev: µM
IC50: 0.053
--
Compound Structure String: COc1cc2cc3c(Nc4ccc(Sc5nccn5C)c(Cl)c4)c(C#N)cnc3cc2cc1OCCN1CCN(C)CC1
Unit Abbrev: µM
IC50: 0.032
--
Compound Structure String: COc1cc2cc3c(Nc4ccc(Sc5nccn5C)c(Cl)c4)c(C#N)cnc3cc2cc1OCCn1nccn1
Unit Abbrev: µM
IC50: 0.019
--
Compound Structure String: COc1cc2cc3c(Nc4ccc(Sc5nccn5C)c(Cl)c4)c(C#N)cnc3cc2cc1OCCCN1CCOCC1
Unit Abbrev: µM
IC50: 0.012

###

test system: Human adenocarcinoma cell line LoVo; assay: Cell based screen for inhibitors of Raf kinase, quantitative assay; settings: 96 h, four days incubation

Compound Structure String: COc1cc2cc3c(Nc4ccc(Sc5nccn5C)c(Cl)c4)c(C#N)cnc3cc2cc1OCCN1CCN(C)CC1
Tested On: Human adenocarcinoma cell line LoVo
Unit Abbrev: nM
IC50: 29

Compound Structure String: COc1cc2cc3c(Nc4ccc(Sc5nccn5C)c(Cl)c4)c(C#N)cnc3nc2cc1OCCN1CCOCC1
Tested On: Human adenocarcinoma cell line LoVo
Unit Abbrev: nM
IC50: 3500

Compound Structure String: COc1cc2cc3ncc(C#N)c(Nc4ccc(OCc5ccccc5)c(Cl)c4)c3cc2cc1OCCN1CCOCC1
Tested On: Human adenocarcinoma cell line LoVo
Unit Abbrev: nM
IC50: 480

Compound Structure String: COc1cc2cc3ncc(C#N)c(Nc4ccc(Oc5ccccc5)c(Cl)c4)c3cc2cc1OCCN1CCOCC1
Tested On: Human adenocarcinoma cell line LoVo
Unit Abbrev: nM
IC50: 250

Compound Structure String: COc1cc2cc3c(Nc4ccc(Sc5nccn5C)c(Cl)c4)c(C#N)cnc3nc2cc1OCCCl
Tested On: Human adenocarcinoma cell line LoVo
Unit Abbrev: nM
IC50: 440

Compound Structure String: COc1cc2cc3c(Nc4ccc(Oc5ccccc5)c(Cl)c4)c(C#N)cnc3cc2cc1OCCN1CCOCC1
Tested On: Human adenocarcinoma cell line LoVo
Unit Abbrev: nM
IC50: 300

Compound Structure String: COc1cc2cc3c(Nc4ccc(Sc5nccn5C)c(Cl)c4)c(C#N)cnc3cc2cc1OCCn1nccn1
Tested On: Human adenocarcinoma cell line LoVo
Unit Abbrev: nM
IC50: 9.4

###

Measured pIC50, listed per entry.
molecular target: Mitogen Activated Protein Kinase (Mek-Erk) (Homo sapiens, UniProt P28482+Q02750); assay: Mitogen Activated Protein Kinase (MAPK) two component coupled test procedure
Sequence (Q02750 whole entry): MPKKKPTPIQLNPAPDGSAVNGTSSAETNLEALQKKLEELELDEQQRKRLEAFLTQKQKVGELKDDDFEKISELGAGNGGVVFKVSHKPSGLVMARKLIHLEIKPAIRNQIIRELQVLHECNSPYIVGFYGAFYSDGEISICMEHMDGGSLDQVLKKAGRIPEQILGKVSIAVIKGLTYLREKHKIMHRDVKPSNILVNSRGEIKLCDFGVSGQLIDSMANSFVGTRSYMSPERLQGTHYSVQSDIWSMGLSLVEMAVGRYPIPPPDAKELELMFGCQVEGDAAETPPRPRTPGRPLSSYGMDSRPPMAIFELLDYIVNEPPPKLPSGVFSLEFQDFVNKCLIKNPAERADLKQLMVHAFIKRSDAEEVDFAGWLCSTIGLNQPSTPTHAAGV
Sequence (P28482 2-360): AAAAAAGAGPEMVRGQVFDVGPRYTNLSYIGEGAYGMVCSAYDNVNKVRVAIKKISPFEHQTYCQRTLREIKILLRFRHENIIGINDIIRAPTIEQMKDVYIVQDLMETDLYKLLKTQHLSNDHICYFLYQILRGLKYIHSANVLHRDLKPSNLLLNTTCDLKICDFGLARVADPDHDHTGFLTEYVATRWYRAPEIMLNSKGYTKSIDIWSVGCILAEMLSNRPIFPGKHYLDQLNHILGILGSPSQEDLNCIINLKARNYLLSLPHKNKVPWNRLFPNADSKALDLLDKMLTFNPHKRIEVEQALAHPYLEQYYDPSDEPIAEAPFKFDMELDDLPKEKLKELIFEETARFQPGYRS
pIC50: −log10 of the molar value.
Recorded Metric: pIC50

Compound Structure String: N#Cc1cnc2cc3c(cc2c1Nc1ccc(Oc2ccccc2)cc1)ncn3CCN1CCOCC1
Result Value: < 5.00
//
Compound Structure String: N#Cc1cnc2c(oc3ccccc32)c1Nc1ccc(Oc2ccccc2)cc1
Result Value: < 4.00

###

IC50 for assorted compounds
biological target: EGF-R Kinase (recombinant enzyme) (Homo sapiens); construct: EGFR cDNA encoding amino acids 645 - 1186 preceded by Met-Ala-(His)6; test: Inhibition of Epidermal Growth Factor Receptor Kinase (EGF-R) using recombinant enzyme; conditions: RR-SRC peptide substrate, (a) = average of two tests
Sequence (P00533 669-1210): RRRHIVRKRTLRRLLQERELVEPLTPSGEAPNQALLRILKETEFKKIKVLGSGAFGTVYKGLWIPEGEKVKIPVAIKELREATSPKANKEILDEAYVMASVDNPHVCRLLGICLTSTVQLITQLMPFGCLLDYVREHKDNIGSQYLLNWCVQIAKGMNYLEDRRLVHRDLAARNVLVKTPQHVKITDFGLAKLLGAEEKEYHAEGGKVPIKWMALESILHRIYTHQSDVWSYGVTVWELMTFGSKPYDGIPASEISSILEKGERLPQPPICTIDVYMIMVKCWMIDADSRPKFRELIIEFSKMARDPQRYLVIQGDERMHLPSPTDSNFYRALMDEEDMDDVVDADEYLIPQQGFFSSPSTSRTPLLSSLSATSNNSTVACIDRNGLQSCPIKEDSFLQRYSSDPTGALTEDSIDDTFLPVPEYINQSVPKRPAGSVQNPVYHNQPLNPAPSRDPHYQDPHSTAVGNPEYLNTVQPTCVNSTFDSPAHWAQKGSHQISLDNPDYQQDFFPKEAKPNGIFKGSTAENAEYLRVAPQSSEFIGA
Recorded Metric: IC50 (nM)

Compound: COc1cc2cc3c(Nc4ccc(OCc5ccccc5)c(Cl)c4)c(C#N)cnc3cc2cc1OCCN1CCOCC1 [Example 218]
Tested On: EGF-R Kinase (recombinant enzyme) (Homo sapiens)
Result Value: 5.3
//
Compound: N#Cc1cnc2c(c1Nc1cccc(Br)c1)C=C1N=CN=C1C2 [Example 37]
Tested On: EGF-R Kinase (recombinant enzyme) (Homo sapiens)
Result Value: 1.5
//
Compound: COc1cc2cc3ncc(C#N)c(Nc4ccc(F)c(Cl)c4)c3cc2cc1OCCN1CCOCC1 [Example 212]
Tested On: EGF-R Kinase (recombinant enzyme) (Homo sapiens)
Result Value: 1890
//
Compound: C=CC(=O)Nc1cccc2c1sc1c(Nc3cccc(Br)c3)c(C#N)cnc12 [Example 94]
Tested On: EGF-R Kinase (recombinant enzyme) (Homo sapiens)
Result Value: 100
//
Compound: N#Cc1cnc2c(oc3ccccc32)c1Nc1cccc(Br)c1 [Example 85]
Tested On: EGF-R Kinase (recombinant enzyme) (Homo sapiens)
Result Value: 1000

###

molecular target: p60^c-src (Src) (Homo sapiens); construct: purchased Upstate Biotechnologies; assay: Src kinase test procedure (Elisa format); type: biochemical; settings: dose 10 µM; read-out: Src %Inh
Sequence (P12931 whole entry): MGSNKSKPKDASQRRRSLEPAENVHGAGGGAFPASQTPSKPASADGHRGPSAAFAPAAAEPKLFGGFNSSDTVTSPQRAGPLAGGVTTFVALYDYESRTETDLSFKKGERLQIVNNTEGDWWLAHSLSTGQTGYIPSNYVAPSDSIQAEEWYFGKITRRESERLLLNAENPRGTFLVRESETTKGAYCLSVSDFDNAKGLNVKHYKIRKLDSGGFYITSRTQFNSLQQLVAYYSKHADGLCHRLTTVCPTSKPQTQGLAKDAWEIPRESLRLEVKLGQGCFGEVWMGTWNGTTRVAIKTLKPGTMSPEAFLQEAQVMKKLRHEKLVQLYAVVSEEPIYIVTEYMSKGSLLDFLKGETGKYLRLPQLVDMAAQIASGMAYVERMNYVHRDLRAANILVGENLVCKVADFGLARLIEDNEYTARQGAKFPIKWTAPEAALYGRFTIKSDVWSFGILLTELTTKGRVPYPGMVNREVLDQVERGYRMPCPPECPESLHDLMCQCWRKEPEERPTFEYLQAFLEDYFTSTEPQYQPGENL
Recorded Metric: inhibition at 10 µM (%)

Compound Structure String: N#Cc1cnc2c(oc3ccccc32)c1Nc1cccc(Br)c1
Recorded Metric: inhibition at 10 µM
Result Value: 53
//
Compound Structure String: N#Cc1cnc2c(oc3ccccc32)c1Nc1ccc(Cl)cc1F
Recorded Metric: inhibition at 10 µM
Result Value: 54
//
Compound Structure String: COc1cc(Nc2c(C#N)cnc3c2sc2ccc([N+](=O)[O-])cc23)c(C)cc1Cl
Recorded Metric: inhibition at 10 µM
Result Value: 0
//
Compound Structure String: Cc1ccc(Nc2c(C#N)cnc3c2oc2ccccc23)cc1O
Recorded Metric: inhibition at 10 µM
Result Value: 0
//
Compound Structure String: N#Cc1cnc2c(sc3ccccc32)c1Nc1cccc(Br)c1
Recorded Metric: inhibition at 10 µM
Result Value: 7
